Source: patent US10174380B2

Tested on: 5 HMCLs with the highest HA Score
assay overview: Growth assay for myeloma cells (Cell Titer Glo, intracellular ATP), HMCLs with high HA Score
Type: cell-based, human
assay conditions: 4 days culture, IL-6 2 ng/ml, read-out: median IC50
metric name: IC50
Answer format reminder: number followed by unit.

**Q:** # IC50 lookup, item CC(/C=C/C(=O)NO)=C\[C@@H](C)C(=O)c1ccc(N(C)C)cc1
**A:** 11 nM
